Data provenance is the supplement of paper PMC9170038.

System: K4 kissing-loop RNA reporter
Test details: apparent KD of K4 kissing-loop reporter; higher = weaker reporter binding
Setup conditions: Eterna round: R107; input ligand: none
Output y for apparent KD of K4 kissing-loop reporter not less than 100 nM; output n otherwise.

Given the entry UGAUACCAGACGGCCGCCACUUCUGCAAGUCAAAGACUUGCCAAGGGAAUCGUCCAGUGAUGUUGGAGGACCGGGUCUGGUAUCU [FiskerMod 3 - Jieux - Exclusion - Tryptophan B] , answer whether its apparent KD of K4 kissing-loop reporter meets or surpasses 100 nM. y

Has AGAACUGUCUUGGAUACCAGUGAUGUUGGUAUCUGUGUGUGAGUGCAAAGCGUCCCACAUUGCCCUUGGCAGCUAAGACUGUUCA [Omei KL Theo B Exc A v1] a recorded apparent KD of K4 kissing-loop reporter greater than or equal to 100 nM? y

# check: apparent KD of K4 kissing-loop reporter of ACACUAUCGUCAUAGACGGUAGUGAACACACAGGAUAUGAGUGAUGUUAGAAGGGUGUAAGACUGUAUCGAAUAGAUACAGUCAA [FmnA 7 #K4BetweenAptamer #OpenEnded] is greater than or equal to 100 nM y

Determine whether measured apparent KD of K4 kissing-loop reporter meets or exceeds 100 nM for AGUGCACUGUCAGGAUAUAUACAGUGAUGUUGUGUAUGUCAGCAAGUCAAAGACUUGCUCUUCUGUGUAGAAGGGACUGUGUACA [Omei KL FMN B Exc A v4] y

For this sequence, is measured apparent KD of K4 kissing-loop reporter 100 nM or higher? UUGAUAUGAUAAUAUCCUGUUUGAUAAAGACAGGAUAUAGAAAAUACUAGAAGGGUCAUUAUAUGCAGUGAUGUUGCAAAUAAGU [Exclusion FMN A Gf 23] n

====

System: MS2 coat protein
Test details: apparent KD of MS2 coat protein; designed switch direction (-1 OFF switch, 1 ON switch): -1; higher = weaker reporter binding
Setup conditions: Eterna round: R95; input ligand: microRNA oligo, concentration not stated
Observation type: apparent KD of MS2 coat protein (nM)
A number alone suffices; assume nM.

Give its apparent KD of MS2 coat protein value. Item: AAGGAGUUAGGAUAUCGAAGAAGAAGAAGAAGAAGAAGAAGCGAGAAGGAACAUGAGGAUCACCCAUGUAAGAA [JR_Exclu4_Sub028] (puzzle: Exclusion 4) 50.5

What value of apparent KD of MS2 coat protein has been recorded for this entry: UGGUAACAUGAGGAUCACCCAUGUCAGGAUAUCAGUAAGAAUAGAUGAGAGUAGAAGAUGAGAAGGGACUAUAU [Excluse me! 7 - Jieux - Exclusion 1] (puzzle: Exclusion 1) 29.1

Tell me the measured apparent KD of MS2 coat protein of CAGUACUGAGGAUAUACAUGAGGAUCACCCAUGUGUUCCAGCUAGGUAACUAGCAAAAGUAGAAGGCAGUACUG [salish99_ex3_r3_096x] (puzzle: Exclusion 3) , please. 25.7

Which apparent KD of MS2 coat protein is reported for this sequence? CCCAUGUCAGGAUAUCUAAGAGAGGAUCAGCCCUCUCCUCCGGAGAAGGGACAUGAGGAUCACCCAUGUAAAAC [Zasorequ] (puzzle: Exclusion 4) 145

Any idea what apparent KD of MS2 coat protein was measured for GAUAAACAUGAGGAUCACCCAUGUGAGGAUAUGCGUACGUUGUCCGUAGGCGACGUGCGCAGAAGGCGCAAGGU [Mat - Mod of JL D99] (puzzle: Exclusion 1) ? 73

====

System: K4 kissing-loop RNA reporter
Test details: apparent KD of K4 kissing-loop reporter; higher = weaker reporter binding
Setup conditions: Eterna round: R107; input ligand: theophylline 20 uM
# apparent KD of K4 kissing-loop reporter binned as label 0 = under 200 nM, label 1 = from 200 nM up to 600 nM, label 2 = 600 nM and over

Band of UUAGUAUAGAGAGGAUAUACCUUCCAGUGAUGUUGGAUAGAUGAAUUUAAUCAUCAAGCAUAGCUUGUAGAAGGCUCUAUACAUU [AK1 SS FMN B] ? label 2

Lab note: which band did AGCUCAGAGUGACUCGAUAAGAGUCACAAACGAGGACCGGUACGGCCGCCACUCGAAAUAACGAGAGUGAUGUUUUCGCUGAGCA [FiskerMod 6 - Jieux - Same State Tryptophan A] land in? label 2

Could you tell me which band UGAUUUAACUGAAGGAGCGGCAAUAGAGAAGGAAAUAUAGUGAUGUUAUAUAAGAGAGAGAGCCAGGUAGGUCGCAGAGGGAGGA [ExArgB.F] belongs to? label 0

Each sequence maps to one class by apparent KD of K4 kissing-loop reporter. Which class for GAUCUGAACGAAAGUUCGGAUCAGUCCGAUACCAGUAUGGAUUCAUACCCUUGGCAGCGGAAAUCUGCUAUGGAGUGAUGUUCCU [Theophylline A K4 13] ? label 1

Please report the category associated with AUCCGAGAAUAUGAUACCAGCUGAGUGUAUCAAGACCGUAUCUCCCGUGCUAGUGAUGUUAGCCCUUGGCAGCAUAUGAAAGCGG [theeternabot_exclusion_KL_Theo_B_15] , nothing else. label 1

Hi, small favor: classify ACCCGGGCCCGAAAGGGCCCGGGAAGAGAUACCAGCAGCGAAAGCUGCCCUUGGCAGCUCACUUAGUGAUGUUGAGAAUAGGGCG [#21 K4 Theophylline A Same State] by its apparent KD of K4 kissing-loop reporter when you get a moment. label 1

Category of UUGAUAUGAUAAUAUCCUGUUUGAUAAAGACAGGAUAUAGAAAAUACUAGAAGGGUCAUUAUAUGCAGUGAUGUUGCAAAUAAGU [Exclusion FMN A Gf 23] : label 0

Which class is correct for the following sequence? AAACGUUGGUCUGAUACCAGCUGAUCGGAAACGAUCUUGCUGGAGUGAUGUUCCAGGAAAAGCCCUUGGCAGCAGACCGACGAAA [MAT - Same State Theophlline B - Mod of Eli - D25] label 2

For this sequence, which bin applies? UGACUGGACUGAAGGAGCGCGAAACUCCUAGUGAUGUUAGGACAACGAGACAAAGUCUCGACGCAGGUAGGUCGCAGUCUAGUCU label 0

Tag the class for UUUGAAAUGACUGAUACCAGUGAAAAUAUAUGUAGUGAUGUUAUAUACUAAUUUAAUAAGCGCCCUUGGCAGCAGUAUGAAUUAU [AstrosExc-theB#16] label 1

Which class does ACACUUUACGUAGGAUAUGCGACGAGUGAUGUUCGUCAGGCGGCUCUAGAUUAAACAAGCCGCCUAGCAGAAGGACGGGCAGUGU [Teaanso] fall in? label 0

Which class does CGAGUGAUGUUCGAAGAGUUGUUGAGCGAUACCAGCCAGGAAACUGGCCCUUGGCAGCGUAAUAAAUAAAUAAAUAAAUGAUCAC [whbob_Ex_Theo_A_th61] fall in? label 2

====

Test system: MS2 coat protein
Test details: apparent KD of MS2 coat protein; designed switch direction (-1 OFF switch, 1 ON switch): -1; higher = weaker reporter binding
Setup conditions: input ligand: FMN 200 uM
Observation type: apparent KD of MS2 coat protein (nM)
Answer format: numeric, nM implied, no suffix.

Fill blank: measured apparent KD of MS2 coat protein of the sequence CGAGGUAGAGGAUAUACGUGGAUGUAAAUUCAUGUUAAUCUACAUGAGGAUCACCCAUGUAGAAGGCUAUAGCG [JR_Ex2_Sub076] (Eterna round: R97, puzzle: Exclusion 2) is ____. 27.8

What value of apparent KD of MS2 coat protein has been recorded for this entry: ACAUUCUGAGGAUAUGUGCGCACUGACAUGAGGAUCACCCAUGUCCGAAUGUCCGAGACGACAGAAGGCAGUGAAU [Eternabot (L2) Solution 72] (Eterna round: R97, puzzle: Exclusion 5) 355

Data request, read-out apparent KD of MS2 coat protein, for UGUCUGUCAGGAUAUUCGAGUUCGAGUGAAAGCUUGAGCUUGAAGAAGGGACAUGAGGAUCACCCAUGUGGACG [-28.5, -27.4 kcal, A 27%, 1bis-(ca)1] (Eterna round: R97, puzzle: Exclusion 4) 87.8

====

Tested on: K4 kissing-loop RNA reporter;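 note: bound reporter read as fluorescence of individual clusters on recovered sequencing chips by microscopy, with normalized cluster intensities fitted with a binding model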
Test details: apparent KD of K4 kissing-loop reporter; higher = weaker reporter binding
Setup conditions: Eterna round: R107; input ligand: none
Parameter threshold = 200 nM. Response is 1 (yes) when apparent KD of K4 kissing-loop reporter meets or exceeds it, else 0 (no).

API: above_or_equal(metric=apparent KD of K4 kissing-loop reporter, cutoff=200 nM) for item UGAUAGGACAGAAGGAGCGGAAGCUAGUCAAAGACUAGCAAACGUUAAACAGGAGUGAUGUUCCAGGUAGGUCGCUGUCCUAUCU [ArgBX 23 #SwitchBubble #StaticStem] 0 (no)

State whether the measured apparent KD of K4 kissing-loop reporter reaches 200 nM, counting equality as reaching it, for AAUAUAUAGUGAAGGAGCGCGAUAAGCAGUGAUGUUGCUUUGUUAUGAUUGUCUAUUUUUACGCAGGUAGGUCGCACUAUAUAUA [JR_ExcArginiB_Sub020] 0 (no)

apparent KD of K4 kissing-loop reporter >= 200 nM for GGAGAGCGGAACGAUACCAGCUGCGGCACGCACCGGAAGUUAAGCCAGUGAUGUUGGCGGAGCCCUUGGCAGCGUGCGCGCGUCC [Abeusma] ? 0 (no)

Is apparent KD of K4 kissing-loop reporter for GCAGGACGAGGAGGAGGAUGAAUUACUGAAGGAGCGCAUAUUUUUGCAGGUAGGUCGCGGUAAACAAGUAUAGUGAUGUUAUAUA [SSArgA.M] at or above 200 nM? 1 (yes)

Decide: apparent KD of K4 kissing-loop reporter of UUAGAAGUAUACUUCAAGAGCUAUACUGAUACCAGAGUCAAUUGACUCCCUUGGCAGCGGAUCGAGUGAUGUUCGUAAGCUCAUU [AK4 SS Theophylline A] >= 200 nM? 1 (yes)

Could you please find out whether GCGGGCCCUGGAGGAUAUGAGUCGAGUGAUGUUCGGCGGUCCAUGCCGAUGCGGCGUUAUGCCCUUUUAGAAGGCCAGGGCCCGC [#2 Exclusion - FMN B Attempt #7 (HarryS)] has apparent KD of K4 kissing-loop reporter that meets 200 nM or exceeds it? 1 (yes)

Does the reported apparent KD of K4 kissing-loop reporter for GGCAGUGAUGUUGCCUAAGCAACGCAUGCAGAGGAUAUUCGUUCGGGAAGAAGGCUGCAGCGUUCUCUCGCGAGUGAUGUUCGCG [Same State FMN A GF 23] fall at or above the 200 nM mark? 0 (no)

Dear colleague, could you confirm whether GACAUACCUAUGGAGGGCCGAUCGAUCAUACGAGGACCGGUACGGCCGCCACUCGUGGGCAGUGAUGUUGACCCUGGGAGGUAAG has apparent KD of K4 kissing-loop reporter at or above 200 nM? 1 (yes)

Say whether CUCGAGUGAUGUUCGAUUAUUUAUACAGAUACCAGUGAAUUUUAACACCCUUGGCAGCUGGUUGUAUCUUUGUAAUUUACACAAG [JR_ExcTheophyA_Sub005] shows apparent KD of K4 kissing-loop reporter of 200 nM or more. 0 (no)

Is it the case that UGACAUUGCUCAGAUACCAGACCUGAGGAUCACCCGGGUGCCAAACGUACAAUAAUAAAGGUCCCUUGGCAGCUGAGCAAUGUCU [TheoBX 14] has apparent KD of K4 kissing-loop reporter reaching or exceeding 200 nM? 0 (no)

hey, is apparent KD of K4 kissing-loop reporter for this one >= 200 nM? CUCACAGUGAUGUUGUGGGCCGAGAGUGAUACCAGCCGUAUUUGUGGCCCUUGGCAGCGCAAAAGCCGAGUGAUGUUCGAAUCGG [Same State Theophylline A GF 24] 1 (yes)

Reported apparent KD of K4 kissing-loop reporter reaches at least 200 nM for UGUACCGAGUUAGGAUAUGUCGUCGAAAGACGAAAUGGAGUGAUGUUCCUUAAACUGCGAAAGCAGACAGAAGGGACUUGGUACU [FmnBS 29 U11] ? 1 (yes)
